Data credit: paper PMC3269340

measurement_notes: Pharmacokinetics in rats after single iv, po or sc dose (plasma and brain)
Format: in vivo, Sprague-Dawley rats
condition_info: male, Sprague-Dawley, 10 mg/kg; rat plasma, SC 10.0 mg eq./kg
value_type: AUC(0-t) (µM·h)
The response must be a number in µM·h with no trailing unit.

Problem: Write down AUC(0-t) measured for item CC12CC3CC(C)(C1)CC(N)(C3)C2 [memantine]
Result: 25.8

---

measurement_notes: Pharmacokinetics in rats after single iv, po or sc dose (plasma and brain)
Assay type: in vivo, Sprague-Dawley rats
condition_info: male, Sprague-Dawley, rat, brain, po, 1.22 mg/kg, rat brain, PO 1.22 mg eq./kg; read-out: AUC(0-∞)
value_type: AUC(0-inf) (µM·h)
Return type: number; implicit unit µM·h.

Problem: Give reported AUC(0-inf) value for CC12CC3CC(C)(C1)CC(N)(C3)C2 [memantine]
Result: 21.1

---

measurement_notes: in vivo
condition_info: male, C57Bl/6, mouse, iv, 1 mg/kg, Half-life (t½)
value_type: half-life (h)
Just the number please, in h, no unit attached.

Problem: Retrieve half-life measured for CC12CC3CC(C)(C1)CC(N)(C3)C2 [memantine] and print it.
Result: 1.97
